# Test system: A549
# PROCEDURE DETAILS: NCI tumour cell line growth inhibition, 48 h
Activity calls are given as the source filed them. No stated cut-off is given here; in the data, active = GI50 up to about 1.1 µM and inactive = higher.
RECORDED ENDPOINT: GI50

Take a look at these entries with their results.
NC(=O)c1c2c(cc3c(=O)c4ccccc4[nH]c13)CCCC2    > 100 µM (inactive)
NC(=O)ON=C1CCN(Cc2ccccc2)CC1    > 100 µM (inactive)
O=C(Nc1ccn(CCO)c(=O)n1)c1ccccc1    > 100 µM (inactive)

Form field GI50, entry CCOC(=O)CCC(NC(=O)c1ccc(/N=C/c2nc3cc(C(F)(F)F)ccc3nc2-c2ccccc2)cc1)C(=O)OCC (stereo not given) : 25.1 µM (inactive)

GI50 reported for this compound O=C(O)c1ccc(NC(=O)C2C(=O)C(=O)N(c3ccc(C(=O)O)cc3)C2=O)cc1 (stereo not given) : > 100 µM (inactive)
